- Test system: cancer cell lines
- Experimental Details: Cancer cell proliferation activity of representative nucleosides, CellTiterGlo 72 h (Example 7, Tables 8 and 9)
- Type: cell-based
- Condition Description: Homo sapiens, MDA-MB-468, 72 h, MDAMB468, breast, 72 h
IC50 values by entry

A selection of reference data follows.
smiles_str=C#C[C@]1(CO)O[C@@H](n2ccc(N)nc2=O)C[C@@H]1O system_under_test="cancer cell lines" readout_kind=IC50 observed_measurement="> 50 µM"
smiles_str=CC[C@]1(CO)O[C@@H](n2ccc(N)nc2=O)C[C@@H]1O system_under_test="cancer cell lines" readout_kind=IC50 observed_measurement="> 50 µM"
smiles_str=C[C@]1(CO)O[C@@H](n2ccc(N)nc2=O)C[C@@H]1O system_under_test="cancer cell lines" readout_kind=IC50 observed_measurement="0.29 µM"
smiles_str=C#C[C@]1(CO)O[C@@H](n2cnc3c(=O)[nH]c(N)nc32)C[C@@H]1O system_under_test="cancer cell lines" readout_kind=IC50 observed_measurement="> 50 µM"
smiles_str=C#C[C@]1(CO)O[C@@H](n2cc(F)c(=O)[nH]c2=O)C[C@@H]1O system_under_test="cancer cell lines" readout_kind=IC50 observed_measurement="> 50 µM"
smiles_str=N#C[C@]1(CO)O[C@@H](n2ccc(N)nc2=O)C[C@@H]1O system_under_test="cancer cell lines" readout_kind=IC50 observed_measurement="1.2 µM"
smiles_str=C#C[C@]1(CO)O[C@@H](n2cc(F)c(N)nc2=O)C[C@@H]1O system_under_test="cancer cell lines" readout_kind=IC50 observed_measurement="> 50 µM"

Please turn your attention to the following entry.
Problem: May I ask what IC50 has been recorded for CC[C@]1(CO)O[C@@H](n2cnc3c(N)nc(N)nc32)C[C@@H]1O ?
Result: > 50 µM
